Known cytotoxicity at 10 µM of a selection of compounds
# Measurement Protocol: Toxicity liver stage against HepG2, at 10uM
# Assay type: cell-based
# Set-up: test concentration 10 uM, cell line HepG2-A16-CD81EGFP
# Condition Info: human, HepG2-A16-CD81EGFP cells; read-out: INHIBITION

Would you please look over these solved cases?
COCCNC(=O)Cn1cc2c(n1)c(C)nn2C(C)C | -6.24%
O=C(c1cc(C2CC2)[nH]n1)N1CCN(Cc2ccccc2)CC1 | -5.94%
COc1cc(C(=O)N2CC(Oc3ccccc3Cl)C2)ccn1 | -3.52%
Cc1ccc2c(c1)C(=O)NCC1(CCN(C(=O)c3cnccn3)CC1)O2 | -15.8%

Prompt line: Which cytotoxicity at 10 µM reading was recorded for the compound O=C(c1c[nH]c2ncccc12)N1CCC(COc2ccccc2)CC1 ?
Response line: 14.4%

Prompt line: Which cytotoxicity at 10 µM reading was recorded for the compound CC(C)(C)CC1CCCN1Cc1nc(-c2ccco2)no1 (configuration not stated) ?
Response line: 4.11%

Prompt line: Which cytotoxicity at 10 µM reading was recorded for the compound CN(Cc1ccco1)C(=O)CN1CCCC(Cn2cncn2)C1 (configuration not stated) ?
Response line: -4%

Prompt line: Which cytotoxicity at 10 µM reading was recorded for the compound c1ccc(CCCN2CCCC2Cn2cncn2)cc1 (configuration not stated) ?
Response line: -0.121%

Values were extracted from ChEMBL document CHEMBL4513216.
